These entries and their values trace back to patent US11643415B1.

method.description: Pharmacokinetic characterization after i.v. and p.o. administration to male CD-1 mice
Format: in vivo
settings: male, CD-1, mouse, plasma, iv, 3 mg/kg, male CD1 mice
measurement.kind: C0 (ng/mL)
All answers are understood in ng/mL, so give the number only.

q: Tell me measured C0 for Cc1cc2nc3c4cc(Cl)ccc4n(CC(=O)NCCN(C)C)c3nc2cc1C please.
a: 351

----------
method.description: Pharmacokinetic characterization after i.v. and p.o. administration to male CD-1 mice
Type: in vivo
settings: i.v., 3.00 mg/kg, male CD1 mice
Where a name gives a salt, the structure may show the parent alone.
measurement.kind: mean Cmax (ng/mL)
Number in ng/mL, nothing else.

[
  {
    "molecule": "Cc1cc2nc3c4cc(Cl)ccc4n(CC(=O)NCCN(C)C)c3nc2cc1C [Rabeximod]",
    "units.of.measure": "ng/mL",
    "mean Cmax": 150
  },
  {
    "molecule": "Cc1cc2nc3c4cc(Cl)ccc4n(CC(=O)NCCN(C)C)c3nc2cc1C [Rabeximod Mao]",
    "units.of.measure": "ng/mL",
    "mean Cmax": 355
  },
  {
    "molecule": "Cc1cc2nc3c4cc(Cl)ccc4n(CC(=O)NCCN(C)C)c3nc2cc1C [Rabeximod Mes]",
    "units.of.measure": "ng/mL",
    "mean Cmax": 383
  }
]

Please find the next molecule below.
q: Answer with the recorded mean Cmax of Cc1cc2nc3c4cc(Cl)ccc4n(CC(=O)NCCN(C)C)c3nc2cc1C [Rabeximod HCl] only.
a: 454

----------
The reader will find reported AUC0-inf values listed item by item below.
method.description: Pharmacokinetic characterization after i.v. and p.o. administration to male CD-1 mice
Format: in vivo
settings: i.v., 3.00 mg/kg, male CD1 mice
Procedure: IV formulations were prepared on the day of dosing. […] Study compounds were administered via the specified route and the times of dosing and blood sampling were recorded. […] Clinical signs and general behavior of the animals were recorded, when necessary. The pharmacokinetic parameters were calculated using Phoenix 64 (Build 6.4.0.768) WinNonlin (version 6.4) software, using non-compartmental methods (NCA). […]
Structures can show the parent of a compound that is named as a salt.
Output spec: scalar in ng·h/mL, unitless text.

[
  {
    "compound": "Cc1cc2nc3c4cc(Cl)ccc4n(CC(=O)NCCN(C)C)c3nc2cc1C [Rabeximod]",
    "measurement.kind": "AUC0-inf",
    "obs.value": 681
  },
  {
    "compound": "Cc1cc2nc3c4cc(Cl)ccc4n(CC(=O)NCCN(C)C)c3nc2cc1C [Rabeximod HCl]",
    "measurement.kind": "AUC0-inf",
    "obs.value": 2220
  },
  {
    "compound": "Cc1cc2nc3c4cc(Cl)ccc4n(CC(=O)NCCN(C)C)c3nc2cc1C [Rabeximod Mao]",
    "measurement.kind": "AUC0-inf",
    "obs.value": 1870
  }
]

Turning now to a further compound:
q: Supply reported AUC0-inf belonging to this compound: Cc1cc2nc3c4cc(Cl)ccc4n(CC(=O)NCCN(C)C)c3nc2cc1C [Rabeximod Mes]
a: 2320

----------
method.description: Pharmacokinetic characterization after i.v. and p.o. administration to male CD-1 mice
Assay type: in vivo
settings: i.v., 3.00 mg/kg, male CD1 mice
Structures can show the parent of a compound that is named as a salt.
measurement.kind: Vss (L/kg)
The response must be a number in L/kg with no trailing unit.

Here's what some known entries look like.
[
  {
    "compound": "Cc1cc2nc3c4cc(Cl)ccc4n(CC(=O)NCCN(C)C)c3nc2cc1C [Rabeximod]",
    "units.of.measure": "L/kg",
    "Vss": 49.4
  },
  {
    "compound": "Cc1cc2nc3c4cc(Cl)ccc4n(CC(=O)NCCN(C)C)c3nc2cc1C [Rabeximod Mao]",
    "units.of.measure": "L/kg",
    "Vss": 16.9
  },
  {
    "compound": "Cc1cc2nc3c4cc(Cl)ccc4n(CC(=O)NCCN(C)C)c3nc2cc1C [Rabeximod HCl]",
    "units.of.measure": "L/kg",
    "Vss": 14.2
  }
]

# ---- query compound ----
q: Entry Cc1cc2nc3c4cc(Cl)ccc4n(CC(=O)NCCN(C)C)c3nc2cc1C [Rabeximod Mes] needs its Vss filled in; supply it.
a: 15.9

----------
method.description: Pharmacokinetic characterization after i.v. and p.o. administration to male CD-1 mice
Assay type: in vivo
settings: male, CD-1, mouse, plasma, iv, 3 mg/kg, male CD1 mice
measurement.kind: half-life
Number first, unit second.

q: Note down half-life recorded for Cc1cc2nc3c4cc(Cl)ccc4n(CC(=O)NCCN(C)C)c3nc2cc1C
a: 8.99 h

----------
method.description: Pharmacokinetic characterization after i.v. and p.o. administration to male CD-1 mice
Format: in vivo
settings: i.v., 3.00 mg/kg; liver blood flow 120 ml/min/kg
Counter-ions that a name gives are not always drawn.
measurement.kind: CL as % of mouse liver blood flow (%)
# value in %; strip the unit string

Take a look at these entries with their results.
[
  {
    "compound": "Cc1cc2nc3c4cc(Cl)ccc4n(CC(=O)NCCN(C)C)c3nc2cc1C [Rabeximod Mao]",
    "units.of.measure": "%",
    "CL as % of mouse liver blood flow": 22.3
  },
  {
    "compound": "Cc1cc2nc3c4cc(Cl)ccc4n(CC(=O)NCCN(C)C)c3nc2cc1C [Rabeximod]",
    "units.of.measure": "%",
    "CL as % of mouse liver blood flow": 61.2
  },
  {
    "compound": "Cc1cc2nc3c4cc(Cl)ccc4n(CC(=O)NCCN(C)C)c3nc2cc1C [Rabeximod HCl]",
    "units.of.measure": "%",
    "CL as % of mouse liver blood flow": 18.8
  }
]

Now consider a different compound.
q: Name the recorded CL as % of mouse liver blood flow of the compound listed here: Cc1cc2nc3c4cc(Cl)ccc4n(CC(=O)NCCN(C)C)c3nc2cc1C [Rabeximod Mes]
a: 17.9

----------
method.description: Quantitative (thermodynamic) solubility determination, shake-flask, LCMS against calibration line
Assay type: physicochemical
settings: HCl buffer, 25 °C, pH 1.2, simulated gastric fluid, thermodynamic from solid, medium HCl, pH buffer 1.2; 4 h equilibration
measurement.kind: solubility at 4 h (µg/mL)
Lab book: enter the figure in µg/mL, no units written.

q: Provide measured solubility at 4 h value, entry: Cc1cc2nc3c4cc(Cl)ccc4n(CC(=O)NCCN(C)C)c3nc2cc1C [Rabeximod]
a: 13

----------
method.description: Pharmacokinetic characterization after i.v. and p.o. administration to male CD-1 mice
Type: in vivo
settings: p.o., 30.0 mg/kg, male CD1 mice
Protocol: IV formulations were prepared on the day of dosing. […] Study compounds were administered via the specified route and the times of dosing and blood sampling were recorded. […] Clinical signs and general behavior of the animals were recorded, when necessary. The pharmacokinetic parameters were calculated using Phoenix 64 (Build 6.4.0.768) WinNonlin (version 6.4) software, using non-compartmental methods (NCA). […]
Counter-ions that a name gives are not always drawn.
Catalogue of Time of peak plasma concentration (tmax) readings, one per entry.
Hi! Could you send only the number? It should be in h, unit omitted.

[
  {
    "compound": "Cc1cc2nc3c4cc(Cl)ccc4n(CC(=O)NCCN(C)C)c3nc2cc1C [Rabeximod]",
    "Time of peak plasma concentration (tmax), h": 4.00
  }
]

q: Please look at this compound and report its Time of peak plasma concentration (tmax): Cc1cc2nc3c4cc(Cl)ccc4n(CC(=O)NCCN(C)C)c3nc2cc1C [Rabeximod Mao]
a: 0.17

q: Give Time of peak plasma concentration (tmax) for Cc1cc2nc3c4cc(Cl)ccc4n(CC(=O)NCCN(C)C)c3nc2cc1C [Rabeximod HCl]
a: 4.00

q: Given Cc1cc2nc3c4cc(Cl)ccc4n(CC(=O)NCCN(C)C)c3nc2cc1C [Rabeximod Mes] , respond with its Time of peak plasma concentration (tmax).
a: 2.00

----------
method.description: Pharmacokinetic characterization after i.v. and p.o. administration to male CD-1 mice
Type: in vivo
settings: male, CD-1, mouse, plasma, po, 30 mg/kg, male CD1 mice
measurement.kind: AUC(0-t) (µg·h/mL)
Just the number please, in µg·h/mL, no unit attached.

q: Identify measured AUC(0-t) associated with Cc1cc2nc3c4cc(Cl)ccc4n(CC(=O)NCCN(C)C)c3nc2cc1C
a: 8.33

----------
Measured clearance accompanies every entry in the list below.
method.description: Pharmacokinetic characterization after i.v. and p.o. administration to male CD-1 mice
Type: in vivo
settings: i.v., 3.00 mg/kg, male CD1 mice
Structures can show the parent of a compound that is named as a salt.
Answer in mL/min/kg, number only, no unit symbol.

[
  {
    "compound": "Cc1cc2nc3c4cc(Cl)ccc4n(CC(=O)NCCN(C)C)c3nc2cc1C [Rabeximod]",
    "clearance (mL/min/kg)": 73.4
  },
  {
    "compound": "Cc1cc2nc3c4cc(Cl)ccc4n(CC(=O)NCCN(C)C)c3nc2cc1C [Rabeximod HCl]",
    "clearance (mL/min/kg)": 22.6
  },
  {
    "compound": "Cc1cc2nc3c4cc(Cl)ccc4n(CC(=O)NCCN(C)C)c3nc2cc1C [Rabeximod Mes]",
    "clearance (mL/min/kg)": 21.5
  }
]

q: Please indicate clearance recorded for Cc1cc2nc3c4cc(Cl)ccc4n(CC(=O)NCCN(C)C)c3nc2cc1C [Rabeximod Mao]
a: 26.8
